The reader will find reported kcat values listed item by item below.
# System: Factor X (FX), P00742
# Sequence (P00742 whole entry, looked up): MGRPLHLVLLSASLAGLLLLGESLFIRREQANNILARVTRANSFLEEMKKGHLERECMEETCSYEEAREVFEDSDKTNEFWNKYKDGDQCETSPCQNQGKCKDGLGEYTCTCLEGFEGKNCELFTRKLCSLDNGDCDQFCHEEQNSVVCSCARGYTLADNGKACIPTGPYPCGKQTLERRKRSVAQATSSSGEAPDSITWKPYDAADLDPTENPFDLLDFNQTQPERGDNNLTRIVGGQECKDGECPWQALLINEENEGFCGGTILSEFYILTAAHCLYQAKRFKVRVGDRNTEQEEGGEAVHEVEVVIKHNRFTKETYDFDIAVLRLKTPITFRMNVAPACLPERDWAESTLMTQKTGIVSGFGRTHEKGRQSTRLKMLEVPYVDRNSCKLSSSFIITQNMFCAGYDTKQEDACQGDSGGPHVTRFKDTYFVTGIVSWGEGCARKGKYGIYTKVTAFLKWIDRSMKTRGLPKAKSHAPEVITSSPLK
Give the value; after it, write the unit.

| Protein | Parameter measured | Value observed |
| --- | --- | --- |
| FIXa-D203N/F205T/R338E (protein) chain 1: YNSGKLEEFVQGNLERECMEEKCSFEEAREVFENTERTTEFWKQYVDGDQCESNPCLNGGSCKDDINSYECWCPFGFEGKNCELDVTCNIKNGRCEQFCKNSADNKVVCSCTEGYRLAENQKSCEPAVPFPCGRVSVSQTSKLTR chain 2: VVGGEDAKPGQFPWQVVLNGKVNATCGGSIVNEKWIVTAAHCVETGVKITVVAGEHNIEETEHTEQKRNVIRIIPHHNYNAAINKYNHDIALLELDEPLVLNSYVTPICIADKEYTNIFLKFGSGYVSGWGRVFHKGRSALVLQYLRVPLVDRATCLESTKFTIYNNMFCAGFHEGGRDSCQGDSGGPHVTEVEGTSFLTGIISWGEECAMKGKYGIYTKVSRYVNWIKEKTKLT | kcat | 2.5 s⁻¹ |
| FIXa variant Y259F/K265T/Y345T (protein) chain 1: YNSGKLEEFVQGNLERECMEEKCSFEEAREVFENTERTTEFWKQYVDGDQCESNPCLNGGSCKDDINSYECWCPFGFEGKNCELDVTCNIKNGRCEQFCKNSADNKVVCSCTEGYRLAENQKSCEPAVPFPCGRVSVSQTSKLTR chain 2: VVGGEDAKPGQFPWQVVLNGKVDAFCGGSIVNEKWIVTAAHCVETGVKITVVAGEHNIEETEHTEQKRNVIRIIPHHNFNAAINTYNHDIALLELDEPLVLNSYVTPICIADKEYTNIFLKFGSGYVSGWGRVFHKGRSALVLQYLRVPLVDRATCLRSTKFTITNNMFCAGFHEGGRDSCQGDSGGPHVTEVEGTSFLTGIISWGEECAMKGKYGIYTKVSRYVNWIKEKTKLT | kcat | 1.7 s⁻¹ |
| FIXa-I251S/R318Y/R338E/R403E/E410N (protein) chain 1: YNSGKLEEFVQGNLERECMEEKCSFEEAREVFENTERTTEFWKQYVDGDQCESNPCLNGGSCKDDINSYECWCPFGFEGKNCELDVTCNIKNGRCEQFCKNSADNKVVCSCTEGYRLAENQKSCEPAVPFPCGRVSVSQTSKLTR chain 2: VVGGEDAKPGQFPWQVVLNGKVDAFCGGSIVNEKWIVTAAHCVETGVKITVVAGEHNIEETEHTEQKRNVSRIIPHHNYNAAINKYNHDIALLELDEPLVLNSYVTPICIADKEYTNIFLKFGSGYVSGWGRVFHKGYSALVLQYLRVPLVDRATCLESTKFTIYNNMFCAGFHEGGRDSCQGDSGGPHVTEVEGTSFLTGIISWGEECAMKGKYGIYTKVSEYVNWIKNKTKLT | kcat | 4.8 s⁻¹ |

Moving on to the next protein.
### Prompt Request the reported kcat associated with FIXa variant D104N/K106S/Y155F/K247N/N249S/R318Y/R338E/R403E/E410N (protein) chain 1: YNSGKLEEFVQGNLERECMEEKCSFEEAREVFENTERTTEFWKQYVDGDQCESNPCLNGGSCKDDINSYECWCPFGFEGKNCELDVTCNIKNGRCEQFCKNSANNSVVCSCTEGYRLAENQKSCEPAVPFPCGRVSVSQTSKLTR chain 2: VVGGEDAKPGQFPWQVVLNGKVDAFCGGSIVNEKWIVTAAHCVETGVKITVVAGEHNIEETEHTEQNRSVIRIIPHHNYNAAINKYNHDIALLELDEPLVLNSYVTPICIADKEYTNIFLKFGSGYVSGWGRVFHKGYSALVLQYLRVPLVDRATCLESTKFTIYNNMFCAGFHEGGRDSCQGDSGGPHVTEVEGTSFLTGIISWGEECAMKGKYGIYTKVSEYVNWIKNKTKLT
### Response 6.9 s⁻¹
